All figures here come from ChEMBL document CHEMBL4020747.

# Method Summary: Octanol-water partition coefficient, log P of the compound at pH 7.4 after 24 hrs by HPLC method
# Type: physicochemical
# Experimental Conditions: pH 7.4, 24 h
Test Readout: logP

{"Query Smiles": "Cc1cc(/C=C/C#N)cc(C)c1Oc1cc(Nc2ccc(C#N)cc2)c(N)cc1C(=O)OCCC#N", "Result Operator": ">", "Readout Value": 5}
{"Query Smiles": "Cc1cc(/C=C/C#N)cc(C)c1Nc1ccnc(Nc2ccc(C#N)cc2)n1", "Result Operator": ">", "Readout Value": 5}
{"Query Smiles": "Cc1cc(/C=C/C#N)cc(C)c1Oc1cc(Nc2ccc(C#N)cc2)c(N)cc1C(N)=O", "Result Operator": "=", "Readout Value": 3.53}
{"Query Smiles": "COCCOC(=O)c1cc(N)c(Nc2ccc(C#N)cc2)cc1Oc1c(C)cc(/C=C/C#N)cc1C", "Result Operator": ">", "Readout Value": 5}
{"Query Smiles": "Cc1cc(/C=C/C#N)cc(C)c1Oc1cc(Nc2ccc(C#N)cc2)c(N)cc1C(=O)NN", "Result Operator": "=", "Readout Value": 2.31}
{"Query Smiles": "Cc1cc(/C=C/C#N)cc(C)c1Oc1cc(Nc2ccc(C#N)cc2)c(N)cc1C(=O)NCCCl", "Result Operator": ">", "Readout Value": 5}
{"Query Smiles": "Cc1cc(/C=C/C#N)cc(C)c1Oc1cc(Nc2ccc(C#N)cc2)c(N)cc1C(=O)N1CC1", "Result Operator": "=", "Readout Value": 2.21}
{"Query Smiles": "Cc1cc(/C=C/C#N)cc(C)c1Oc1cc(Nc2ccc(C#N)cc2)c(N)cc1C(=O)N1CC(F)(F)C1", "Result Operator": "=", "Readout Value": 3.58}
{"Query Smiles": "Cc1cc(/C=C/C#N)cc(C)c1Oc1cc(Nc2ccc(C#N)cc2)c(N)cc1C(=O)NCCCO", "Result Operator": "=", "Readout Value": 3.22}
